Target: P2X4 receptor (Homo sapiens, UniProt Q99571)
Sequence (Q99571 1-388): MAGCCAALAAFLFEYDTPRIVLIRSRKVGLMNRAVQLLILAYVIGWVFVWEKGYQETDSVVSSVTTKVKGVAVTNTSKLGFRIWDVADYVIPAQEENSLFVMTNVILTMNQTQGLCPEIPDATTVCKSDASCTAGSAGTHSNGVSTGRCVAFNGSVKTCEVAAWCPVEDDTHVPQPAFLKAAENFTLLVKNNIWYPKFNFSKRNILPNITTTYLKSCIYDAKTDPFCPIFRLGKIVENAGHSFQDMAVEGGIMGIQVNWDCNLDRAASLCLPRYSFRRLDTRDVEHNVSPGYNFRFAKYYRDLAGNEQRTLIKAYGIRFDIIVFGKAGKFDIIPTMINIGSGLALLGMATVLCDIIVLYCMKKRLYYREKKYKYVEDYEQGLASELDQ
Experiment: Measurement of Ca2+ influx in transfected 1321N1 astrocytoma cells (P2X4 inhibitory potency)
Conditions: agonist-mediated Ca2+ influx, FLUO-4, 1321N1 astrocytoma cells; antagonists added 30 min before agonist
# IC50 listing for each entry below
recorded-metric: IC50

> print(dat)
                              line.notation                            assayed.target        result
1  CC(=O)Nc1cccc2c1CCN2C(=O)CNc1cc(-c2nc(C)ns2)ccc1C  P2X4 receptor (Homo sapiens, UniProt Q99571)  0.1 to 19 nM
2  CCc1nsc(-c2ccc(C)c(NCC(=O)N3CCc4c(N5CC(O)C5)cccc43)c2)n1  P2X4 receptor (Homo sapiens, UniProt Q99571)   20 to 39 nM
3  COc1cccc2c1CCN2C(=O)CNc1cc(-c2nc(C)no2)ccc1C  P2X4 receptor (Homo sapiens, UniProt Q99571)  0.1 to 19 nM
4  Cc1ccc(-c2ccc(Cl)cn2)cc1NCC(=O)N1CCc2c(OCC(C)(C)O)cccc21  P2X4 receptor (Homo sapiens, UniProt Q99571)   40 to 69 nM
5  CCc1noc(-c2ccc(F)c(NCC(=O)N3CCc4cc(OC)c(F)cc43)c2)n1  P2X4 receptor (Homo sapiens, UniProt Q99571)   20 to 39 nM
6  Cc1nsc(-c2ccc(C)c(NCC(=O)N3CCc4c(-c5cc[nH]n5)cccc43)c2)n1  P2X4 receptor (Homo sapiens, UniProt Q99571)  0.1 to 19 nM
7  Cc1nsc(-c2ccc(C)c(NCC(=O)N3CCc4c3cccc4C3(O)COC3)c2)n1  P2X4 receptor (Homo sapiens, UniProt Q99571)  0.1 to 19 nM
8  Cc1nsc(-c2ccc(C)c(NCC(=O)N3CCc4c(N)cccc43)c2)n1  P2X4 receptor (Homo sapiens, UniProt Q99571)   20 to 39 nM

###

Molecular target: P2X4 receptor (Homo sapiens)
Construct: expressed in transfected cells; host or cells: 1321N1 astrocytoma cells, retroviral vector pQCXIN, G418 selection, monoclones
Experiment: Measurement of Ca2+ influx in transfected 1321N1 astrocytoma cells (P2X4 inhibitory potency)
Format: cell-based
Conditions: agonist-mediated Ca2+ influx, FLUO-4, 1321N1 astrocytoma cells; antagonists added 30 min before agonist
pIC50: −log10 of the molar value.
recorded-metric: pIC50

> print(dat)
                                   compound                assayed.target         result
1  Cc1nsc(-c2ccc(C)c(NCC(=O)N3CCc4c3cccc4-n3ccnc3)c2)n1  P2X4 receptor (Homo sapiens)   7.41 to 7.70
2  CCc1noc(-c2ccc(OC)c(NCC(=O)c3cn(C)c4cc(OC)c(F)cc34)c2)n1  P2X4 receptor (Homo sapiens)  7.72 to 10.00
3  Cc1ccc(-c2ccc(C)c(NCC(=O)N3CCc4c(-c5c[nH]cn5)cccc43)c2)o1  P2X4 receptor (Homo sapiens)   7.16 to 7.40
4  CCc1nsc(-c2ccc(F)c(NCC(=O)N3CCc4c(C(C)O)cccc43)c2)n1 (centres unmarked)  P2X4 receptor (Homo sapiens)  7.72 to 10.00
5  Cc1nsc(-c2ccc(C)c(NCC(=O)N3CCc4c3cccc4N3C(=O)CC(N)C3=O)c2)n1 (centres unmarked)  P2X4 receptor (Homo sapiens)  7.72 to 10.00
6  Cc1ccc(-c2ccc(C)c(NCC(=O)N3CCc4c(CO)cccc43)c2)nc1  P2X4 receptor (Homo sapiens)   7.00 to 7.15
7  CCc1nsc(-c2ccc(C)c(NCC(=O)N3CCc4c3cccc4-n3ccnc3)c2)n1  P2X4 receptor (Homo sapiens)   7.41 to 7.70
8  Cc1nsc(-c2ccc(C)c(NCC(=O)c3c[nH]c4ccccc34)c2)n1  P2X4 receptor (Homo sapiens)   7.41 to 7.70
